- Tested target: Glutamate receptor ionotropic, NMDA 1 (Rattus norvegicus); also: assay procedure not described here
Would you mind telling me the reported AC50 of each entry?

Solved cases (3 shown):
CO/N=C(\C(=O)N[C@@H]1C(=O)N2C(C(=O)O)=C(COC(N)=O)CS[C@H]12)c1ccco1 :: > 30 µM
CNC[C@H](O)c1cccc(O)c1 :: > 10 µM
Clc1ccc2c(c1)C(c1ccccc1)=NCc1nncn1-2 :: > 10 µM

From here, focus on the item given below.
Prompt: For CC(=O)OCC(=O)[C@@]1(O)CC[C@H]2[C@@H]3CCC4=CC(=O)CC[C@]4(C)C3=CC[C@@]21C [ANECORTAVE ACETATE] , what is its reported AC50?
Response: > 10 µM
